experimental.target: Protein-S-isoprenylcysteine O-methyltransferase (Homo sapiens)
Sequence (O60725 whole entry, the tested form may be a part): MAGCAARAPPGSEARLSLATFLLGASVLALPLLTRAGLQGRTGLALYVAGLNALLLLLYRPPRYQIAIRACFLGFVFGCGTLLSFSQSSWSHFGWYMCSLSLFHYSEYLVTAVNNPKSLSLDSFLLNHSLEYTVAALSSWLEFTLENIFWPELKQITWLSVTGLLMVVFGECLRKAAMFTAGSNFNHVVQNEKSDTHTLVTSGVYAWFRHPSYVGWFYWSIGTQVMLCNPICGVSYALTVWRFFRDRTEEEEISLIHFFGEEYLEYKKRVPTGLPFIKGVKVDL
test: Inhibition of human isoprenylcysteine carboxyl methyltransferase using [14C]SAM and N-acetyl-S-farnesyl-L-cysteine as substrate at 10 uM after 30 mins by vapor diffusion assay
Recorded measurements of inhibition, one per entry
experimental.endpoint: inhibition (%)

>>> print(df.to_string())
                                    compound                       experimental_target  experimental_endpoint  data_value
 0    CC(C)=CCC/C(C)=C/CC/C(C)=C/CSC(F)(F)CO  Protein-S-isoprenylcysteine O-methyltransferase (Homo sapiens)             inhibition          44
 1     CC(C)=CCC/C(C)=C/CC/C(C)=C/CSCC(=O)NO  Protein-S-isoprenylcysteine O-methyltransferase (Homo sapiens)             inhibition          36
 2      CC(=O)CSC/C=C(\C)CC/C=C(\C)CCC=C(C)C  Protein-S-isoprenylcysteine O-methyltransferase (Homo sapiens)             inhibition          25
 3  CCOP(=O)(CCCSC/C=C(\C)CC/C=C(\C)CCC=C(C)C)OCC  Protein-S-isoprenylcysteine O-methyltransferase (Homo sapiens)             inhibition          20
 4          CCCSC/C=C(\C)CC/C=C(\C)CCC=C(C)C  Protein-S-isoprenylcysteine O-methyltransferase (Homo sapiens)             inhibition           0
 5    COC(=O)CCSC/C=C(\C)CC/C=C(\C)CCC=C(C)C  Protein-S-isoprenylcysteine O-methyltransferase (Homo sapiens)             inhibition          14
 6  COC(=O)C(C)(C)SC/C=C(\C)CC/C=C(\C)CCC=C(C)C  Protein-S-isoprenylcysteine O-methyltransferase (Homo sapiens)             inhibition           8
 7         CC(C)=CCC/C(C)=C/CC/C(C)=C/CCSCCO  Protein-S-isoprenylcysteine O-methyltransferase (Homo sapiens)             inhibition          20
 8      CC(C)=CCC/C(C)=C/CC/C(C)=C/CSCC(N)=O  Protein-S-isoprenylcysteine O-methyltransferase (Homo sapiens)             inhibition          47
 9      CC(C)=CCC/C(C)=C/CC/C(C)=C/CSCC(=O)O  Protein-S-isoprenylcysteine O-methyltransferase (Homo sapiens)             inhibition          50
10  CC(C)=CCC/C(C)=C/CC/C(C)=C/CSC(C)(C)C(=O)O  Protein-S-isoprenylcysteine O-methyltransferase (Homo sapiens)             inhibition          27
11  CC(C)=CCC/C(C)=C/CC/C(C)=C/CSCC(C)O (configuration not stated)  Protein-S-isoprenylcysteine O-methyltransferase (Homo sapiens)             inhibition          72
